Overview of recorded pIC50 for various compounds
biological target: integrin α4β1 (Homo sapiens, UniProt P05556+P13612); construct: cell strain Jurkat (ATCC TIB-152) of human T cells, known to express integrin α4β1; endogenous in cells; assay: Assessment of VCAM-1/α4β1 binding antagonist activity (Jurkat cells binding to VCAM-1); details: Jurkat human T cells binding to recombinant human VCAM-1; read-out: integrin VCAM/α4 binding antagonistic activity (IC50) α4β1
Conceptually, pIC50 converts a concentration in mol/L into minus its log10.

- COMPOUND: "O=C(N[C@@H](Cc1ccc(-n2c(=O)c3ccccc3n(Cc3ccccc3Cl)c2=O)cc1)C(=O)O)c1c(Cl)cccc1Cl [compound 119]"
  TARGET_SYSTEM: "integrin α4β1 (Homo sapiens, UniProt P05556+P13612)"
  OBSERVED: 6.36
- COMPOUND: "CCOc1nc2cccc(C)c2c(=O)n1-c1ccc(C[C@H](NC(=O)c2c(Cl)cccc2Cl)C(=O)O)cc1 [compound 94]"
  TARGET_SYSTEM: "integrin α4β1 (Homo sapiens, UniProt P05556+P13612)"
  OBSERVED: 5.94
- COMPOUND: "Cn1c(=O)n(-c2ccc(C[C@H](NC(=O)c3c(Cl)cccc3Cl)C(=O)O)cc2)c(=O)c2cc([N+](C)(C)C)ccc21 [Reference Example 112]"
  TARGET_SYSTEM: "integrin α4β1 (Homo sapiens, UniProt P05556+P13612)"
  OBSERVED: 7.43
- COMPOUND: "Cn1c(=O)n(-c2ccc(C[C@H](NC(=O)c3c(Cl)cccc3Cl)C(=O)O)cc2)c(=O)c2cc(NC(=O)C(C)(C)C)ccc21 [compound 106]"
  TARGET_SYSTEM: "integrin α4β1 (Homo sapiens, UniProt P05556+P13612)"
  OBSERVED: 7.36
- COMPOUND: "Cc1cccc(Cl)c1C(=O)N[C@@H](Cc1ccc(-n2c(=O)c3ccccc3n(C)c2=O)cc1)C(=O)O [Reference Example 162]"
  TARGET_SYSTEM: "integrin α4β1 (Homo sapiens, UniProt P05556+P13612)"
  OBSERVED: 7.47
- COMPOUND: "O=C(N[C@@H](Cc1ccc(-n2c(=O)c3ccccc3n(Cc3ccc(Cl)c(Cl)c3)c2=O)cc1)C(=O)O)c1c(Cl)cccc1Cl [compound 115]"
  TARGET_SYSTEM: "integrin α4β1 (Homo sapiens, UniProt P05556+P13612)"
  OBSERVED: 6.12

Form field pIC50, entry CN(C)c1ccc2c(c1)c(=O)n(-c1ccc(C[C@H](NC(=O)c3c(Cl)cccc3Cl)C(=O)O)cc1)c(=O)n2C [Reference Example 108] : 7.24

For record Cc1ccccc1Cn1c(=O)n(-c2ccc(C[C@H](NC(=O)c3c(Cl)cccc3Cl)C(=O)O)cc2)c(=O)c2ccccc21 [compound 120] the listed pIC50 is 6.30

* * *

Target: integrin α4β7 (Homo sapiens, UniProt P13612+P26010)
Construct: lymphoma cell strain RPMI-8866 of human B cells, known to express integrin α4β7; endogenous in cells; host or cells: RPMI-8866, human B-cell lymphoma line
Sequence (P13612 34-1032): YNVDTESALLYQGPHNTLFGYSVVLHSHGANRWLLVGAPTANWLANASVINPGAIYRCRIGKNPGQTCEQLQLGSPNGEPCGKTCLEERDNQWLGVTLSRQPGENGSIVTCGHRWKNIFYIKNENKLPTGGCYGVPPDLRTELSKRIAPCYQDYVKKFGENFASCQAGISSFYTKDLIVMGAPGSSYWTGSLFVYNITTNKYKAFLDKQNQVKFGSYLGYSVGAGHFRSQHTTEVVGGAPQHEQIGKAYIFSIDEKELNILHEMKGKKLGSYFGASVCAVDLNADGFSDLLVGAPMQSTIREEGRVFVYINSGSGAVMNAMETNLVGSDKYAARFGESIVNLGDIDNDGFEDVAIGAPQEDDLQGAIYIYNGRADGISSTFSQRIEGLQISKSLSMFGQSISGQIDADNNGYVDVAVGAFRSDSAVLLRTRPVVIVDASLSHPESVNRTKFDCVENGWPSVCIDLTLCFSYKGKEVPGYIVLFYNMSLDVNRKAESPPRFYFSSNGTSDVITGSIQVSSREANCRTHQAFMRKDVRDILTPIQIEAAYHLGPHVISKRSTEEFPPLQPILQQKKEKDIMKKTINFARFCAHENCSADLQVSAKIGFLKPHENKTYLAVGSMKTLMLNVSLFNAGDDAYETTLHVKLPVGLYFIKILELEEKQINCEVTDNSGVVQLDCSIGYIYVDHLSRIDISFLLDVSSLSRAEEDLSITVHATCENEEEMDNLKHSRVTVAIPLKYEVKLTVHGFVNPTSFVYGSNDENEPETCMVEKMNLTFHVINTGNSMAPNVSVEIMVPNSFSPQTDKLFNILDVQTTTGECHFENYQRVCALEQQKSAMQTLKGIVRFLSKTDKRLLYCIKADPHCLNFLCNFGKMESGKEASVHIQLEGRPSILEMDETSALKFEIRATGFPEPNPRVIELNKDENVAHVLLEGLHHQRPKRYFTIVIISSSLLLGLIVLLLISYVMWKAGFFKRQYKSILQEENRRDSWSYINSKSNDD
Sequence (P26010 20-798): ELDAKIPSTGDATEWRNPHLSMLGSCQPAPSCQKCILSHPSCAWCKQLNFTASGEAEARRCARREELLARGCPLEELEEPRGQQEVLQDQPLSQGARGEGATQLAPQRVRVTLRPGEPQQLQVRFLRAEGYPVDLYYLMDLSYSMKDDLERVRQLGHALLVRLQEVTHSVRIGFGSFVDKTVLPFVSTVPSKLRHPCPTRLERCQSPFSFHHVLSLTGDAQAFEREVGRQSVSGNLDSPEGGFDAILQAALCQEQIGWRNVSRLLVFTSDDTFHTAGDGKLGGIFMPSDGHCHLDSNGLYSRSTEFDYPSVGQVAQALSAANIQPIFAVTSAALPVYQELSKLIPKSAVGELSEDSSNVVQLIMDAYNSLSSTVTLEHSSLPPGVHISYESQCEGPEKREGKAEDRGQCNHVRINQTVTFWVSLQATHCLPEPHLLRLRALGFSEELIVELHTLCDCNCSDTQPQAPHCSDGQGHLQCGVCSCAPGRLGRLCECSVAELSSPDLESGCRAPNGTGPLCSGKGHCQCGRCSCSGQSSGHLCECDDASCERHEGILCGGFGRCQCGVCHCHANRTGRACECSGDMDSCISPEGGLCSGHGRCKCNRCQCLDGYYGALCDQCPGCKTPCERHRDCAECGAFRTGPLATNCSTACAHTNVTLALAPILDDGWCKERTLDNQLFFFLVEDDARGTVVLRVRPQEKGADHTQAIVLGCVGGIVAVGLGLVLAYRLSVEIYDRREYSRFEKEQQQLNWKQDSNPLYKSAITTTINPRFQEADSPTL
Assay: Assessment of VCAM-1/α4β7 binding antagonistic activity (RPMI-8866 cells binding to VCAM-1)
Assay type: cell-based
Conditions: RPMI-8866 human B lymphoma cells binding to recombinant human VCAM-1, binding buffer with 4 mM MnCl2; read-out: integrin VCAM/α4 binding antagonistic activity (IC50) α4β7
Description: The capacity of a test substance antagonistic to the binding of lymphoma cell strain RPMI-8866 of human B cells, known to express integrin α4β7, to VCAM-1 was determined. […] RPMI-8866 cells were washed with DMEM twice and incubated in Dulbecco modified Eagle medium containing 10 μg/ml of Calcein-AM (Wako Pure Chemical Industries, Ltd.) (SIGMA, hereinafter referred to as “DMEM”) in dark place at 37° C. for 30 minutes to label with fluorescence. […]
IC50: recorded values
Form entry: value (nM) — number only.

Some compounds with recorded IC50:
- COMPOUND: "Cn1c(=O)n(-c2ccc(C[C@H](NC(=O)c3c(Cl)cccc3Br)C(=O)O)cc2)c(=O)c2ccccc21"
  UNIT_NAME: "nM"
  IC50: 0.6
- COMPOUND: "Cc1cccc(Cl)c1C(=O)N[C@@H](Cc1ccc(-n2c(=O)c3ccccc3n(C)c2=O)cc1)C(=O)O [Reference Example 162]"
  UNIT_NAME: "nM"
  IC50: 0.2

Entry under test: O=C(N[C@@H](Cc1ccc(-n2c(=O)[nH]c3ncccc3c2=O)cc1)C(=O)O)c1c(Cl)cccc1Cl . Its IC50 was 18

Lab note: measured IC50 of CCC(C)n1c(=O)n(-c2ccc(C[C@H](NC(=O)c3c(Cl)cccc3Cl)C(=O)O)cc2)c(=O)c2cc([N+](=O)[O-])ccc21 (stereo partly shown) was 31.6

# IC50 of CCN(C)c1nc2ccccc2c(=O)n1-c1ccc(C[C@H](NC(=O)c2c(Cl)cccc2Cl)C(=O)O)cc1 = 76.4

Entry under test: COCC(=O)Nc1ccc2c(c1)c(=O)n(-c1ccc(C[C@H](NC(=O)c3c(Cl)cccc3Cl)C(=O)O)cc1)c(=O)n2C . Its IC50 was 0.8

Source: patent US7605165B2
